molecular target: Heat shock protein HSP 90-alpha (Homo sapiens) (UniProt P07900); assay: Hsp90 blockade concentration-response – dose response (AID 712); conditions: Hsp90 inhibition assay
Active and inactive are the calls of the source. How the calls were made is not given here.
Form entry, call: pick from active, inactive

Completed entries (count: 3):
- molecule: "CCCCCC(=O)N1CC2(C)CN(C(=O)CCCCC)CC(C)(C1)C2=O"
  class: "inactive"
- molecule: "CC(=O)Nc1cc(OC(C)=O)c2nonc2c1OC(C)=O"
  class: "active"
- molecule: "O=C1c2ccccc2C(O)(O)C1(O)C1(O)C(=O)c2ccccc2C1(O)O (stereo unspecified)"
  class: "active"

### Prompt GET /call?item= COC(=O)C1=C(C)N(c2cccc3ccccc23)C(=O)C1 returns the recorded outcome of this test.
### Response inactive

* * *

biological target: Heat shock protein HSP 90-alpha (Homo sapiens) (UniProt P07900); experiment: Hsp90 blockade concentration-response – dose response (AID 712); details: Hsp90 inhibition assay
The source made the active and inactive calls. No rule for the calls is given here.
Form entry, call: pick from class 1 (active), class 0 (inactive)

- molecule: "Nc1cc(N)nc(SCC(=O)Nc2nonc2N)n1"
  study system: "Heat shock protein HSP 90-alpha (Homo sapiens) (UniProt P07900)"
  class: "class 0"

### Prompt GET /call?item= COc1ccc(-c2nc(CS(=O)CC(=O)NCc3ccccn3)c(C)o2)cc1 (configuration not stated) returns the recorded outcome of this test.
### Response class 1

### Prompt GET /call?item= Nc1cccc2cnccc12 returns the recorded outcome of this test.
### Response class 0

### Prompt GET /call?item= NCCCCCNc1cc(O)cc2cccnc12 returns the recorded outcome of this test.
### Response class 1

### Prompt GET /call?item= O=c1cc(NCCCO)c2ccccc2o1 returns the recorded outcome of this test.
### Response class 0

* * *

target: Heat shock protein HSP 90-alpha (Homo sapiens); test: Hsp90 blockade concentration-response – dose response (AID 712); conditions: Hsp90 inhibition assay
Active and inactive are the calls of the source. How the calls were made is not given here.
Form entry, call: pick from y (active), n (inactive)

Completed entries (count: 6):
- compound: "O=C(CSc1nnc(Cc2cc(=O)[nH]c(=O)[nH]2)n1-c1ccccc1)NCC1CCCO1 (stereo not given)"
  study system: "Heat shock protein HSP 90-alpha (Homo sapiens)"
  class: "n"
- compound: "COc1ccc2c(c1-c1cc(NS(=O)(=O)c3cccc([N+](=O)[O-])c3)ccc1N)OCO2"
  study system: "Heat shock protein HSP 90-alpha (Homo sapiens)"
  class: "n"
- compound: "CCOc1ccc2ccccc2c1-c1cc(NS(=O)(=O)c2ccc(OC)c(OC)c2)ccc1N"
  study system: "Heat shock protein HSP 90-alpha (Homo sapiens)"
  class: "n"
- compound: "N#Cc1cc(S(=O)(=O)Nc2ccc(F)c(-c3c(O)ccc4c3OCO4)c2)ccc1F"
  study system: "Heat shock protein HSP 90-alpha (Homo sapiens)"
  class: "y"
- compound: "COC(=O)c1cc(=O)[nH]c2ccc(C)cc12"
  study system: "Heat shock protein HSP 90-alpha (Homo sapiens)"
  class: "n"
- compound: "COc1cccc(C(=O)NC2CC3CCCC(C2)N3CC(=O)Nc2ccccc2)c1 (stereo not given)"
  study system: "Heat shock protein HSP 90-alpha (Homo sapiens)"
  class: "y"

### Prompt GET /call?item= Nc1cccc(S(=O)(=O)Nc2ccc(O)c(-c3ccccc3O)c2)c1 returns the recorded outcome of this test.
### Response n

### Prompt GET /call?item= Cc1ccc(S(=O)(=O)Nc2cc(O)cc3cccnc23)cc1 returns the recorded outcome of this test.
### Response n

### Prompt GET /call?item= O=C1c2ccccc2-c2onc3ccc(NCc4ccco4)c1c23 returns the recorded outcome of this test.
### Response y

### Prompt GET /call?item= CCN(CC)CCCCCNc1cc(O)cc2cccnc12 returns the recorded outcome of this test.
### Response y

* * *

target: Heat shock protein HSP 90-alpha (Homo sapiens) (UniProt P07900); experiment: Hsp90 blockade concentration-response – dose response (AID 712); conditions: Hsp90 inhibition assay
The source made the active and inactive calls. No rule for the calls is given here.
Form entry, call: pick from true (1) = active, false (0) = inactive

Completed entries (count: 6):
- compound: "O=c1c(-c2ccc3c(c2)OCCO3)coc2c(CN3CCOCC3)c(O)ccc12"
  class: "false (0)"
- compound: "CCn1nc(-c2ccccc2)nc2c(=O)n(C)c(=O)nc1-2"
  class: "true (1)"
- compound: "CCOc1ccc2ccccc2c1-c1cc(NS(=O)(=O)c2ccc(C)cc2)ccc1N"
  class: "false (0)"
- compound: "COC(=O)c1ccc2c(c1)SC1=C(CCCC1=O)N2"
  class: "true (1)"
- compound: "Cc1cccc(NC(=O)Cn2nnc(-c3cccs3)n2)c1C"
  class: "false (0)"
- compound: "COc1cc(N)c2nccc(Cl)c2c1"
  class: "false (0)"

### Prompt GET /call?item= Cc1c(N=c2c(=O)c3ccccc3c2=O)c(=O)n(-c2ccccc2)n1C returns the recorded outcome of this test.
### Response true (1)

### Prompt GET /call?item= CC(C)NCCCCCNc1cc(O)cc2cccnc12 returns the recorded outcome of this test.
### Response true (1)

### Prompt GET /call?item= Cc1ccc(C(=O)O)cc1S(=O)(=O)NCC1CCCO1 (stereo not given) returns the recorded outcome of this test.
### Response false (0)

### Prompt GET /call?item= CCc1ccc(-c2nnn(CCC(=O)OC)n2)cc1 returns the recorded outcome of this test.
### Response false (0)

### Prompt GET /call?item= COc1cc(NCCCC(C)N)c2ncccc2c1 (stereo not given) returns the recorded outcome of this test.
### Response false (0)

### Prompt GET /call?item= Nc1ccc(Nc2nc3ccccc3s2)c(O)c1 returns the recorded outcome of this test.
### Response false (0)

### Prompt GET /call?item= CCC(C)NCCNc1cc(OC)cc2cccnc12 (stereo not given) returns the recorded outcome of this test.
### Response true (1)

### Prompt GET /call?item= CCOC(=O)NC1(NCc2ccccc2)Oc2ccccc2O1 returns the recorded outcome of this test.
### Response false (0)

### Prompt GET /call?item= Cn1cnnc1SCC(=O)c1ccc2c(c1)CCCC2 returns the recorded outcome of this test.
### Response false (0)

### Prompt GET /call?item= O=C1C(c2c(O)[nH]c3ccc([N+](=O)[O-])cc23)=Nc2ccccc21 returns the recorded outcome of this test.
### Response true (1)

* * *

molecular target: Heat shock protein HSP 90-alpha (Homo sapiens) (UniProt P07900); test: Hsp90 blockade concentration-response – dose response (AID 712); conditions: Hsp90 inhibition assay
The source made the active and inactive calls. The rule behind the calls is not given here.
Quick list: IC50 per entry.

- smiles text: "Oc1c(Cl)cc(Cl)c2cccnc12"
  reported: "> 50 µM (inactive)"

### Prompt Which measured IC50 value corresponds to N#Cc1ccc(CSc2nnc(Nc3ccccc3)s2)cc1 ?
### Response > 50 µM (inactive)

### Prompt Which measured IC50 value corresponds to COc1ccc2c3c(cccc13)NN=C2C ?
### Response 8.36 µM

* * *

biological target: Heat shock protein HSP 90-alpha (Homo sapiens) (UniProt P07900); test: Hsp90 blockade concentration-response – dose response (AID 712); conditions: Hsp90 inhibition assay
The source made the active and inactive calls. The rule behind the calls is not given here.
Form entry, call: pick from active, inactive

Completed entries (count: 8):
- compound: "COc1cc(N)c2nccc(OCc3ccccc3)c2c1"
  class: "inactive"
- compound: "Cc1ccc(S(=O)(=O)N2CCC(C(=O)N[C@@H](C)C(=O)Nc3ccc4c(c3)OCO4)CC2)cc1"
  class: "active"
- compound: "Cc1nnc(NC(=O)CSc2nc(N)cc(N)n2)s1"
  class: "inactive"
- compound: "O=C1C(c2cnc3ccccc3n2)=C(O)c2ccccc21"
  class: "active"
- compound: "Cc1[nH]c2c(N)cccc2c1C"
  class: "inactive"
- compound: "Cc1nc(-c2c(-c3ccc(O)cc3O)noc2C(F)(F)F)cs1"
  class: "active"
- compound: "O=C1c2ccccc2-c2onc3ccc(NCCCn4ccnc4)c1c23"
  class: "active"
- compound: "CC1=CC(C#N)(C#N)C(C#N)(C#N)C(c2ccccc2)N1 (configuration not stated)"
  class: "active"

### Prompt GET /call?item= CC(CCN(C)C)Nc1cc(O)cc2cccnc12 (configuration not stated) returns the recorded outcome of this test.
### Response active

### Prompt GET /call?item= O=C(c1cc(-c2ccncc2)nc2ccc(Br)cc12)N1CCN(c2ccccn2)CC1 returns the recorded outcome of this test.
### Response inactive

### Prompt GET /call?item= Nc1cc(N)nc(SCC(=O)Nc2nncs2)n1 returns the recorded outcome of this test.
### Response inactive

### Prompt GET /call?item= O=C(O)c1ccccc1C1=Nc2ccc(O)cc2Oc2cc(O)ccc21 returns the recorded outcome of this test.
### Response active

* * *

target: UniProtKB P07900; test: Hsp90 blockade concentration-response – dose response (AID 712); details: Hsp90 inhibition assay
Active and inactive are the calls of the source. The rule behind the calls is not given here.
Form entry, call: pick from active, inactive

Completed entries (count: 5):
- molecule: "O=C1c2ccccc2C(Nc2ccc3c(c2)OCO3)N1Cc1ccc2c(c1)OCO2 (stereo not drawn)"
  class: "inactive"
- molecule: "C=CCn1c(NC(=O)c2ccccc2Cl)c(C#N)c2nc3ccccc3nc21"
  class: "inactive"
- molecule: "COc1ccc(NCc2cc3cc(OC)ccc3[nH]c2=O)cc1"
  class: "inactive"
- molecule: "Cc1ccc(CNc2ccc(O)cc2)cc1"
  class: "inactive"
- molecule: "Cn1c(=O)c2c(nc(NCc3ccc4c(c3)OCO4)n2C)n(C)c1=O"
  class: "inactive"

### Prompt GET /call?item= Cn1c(=O)c2c(nc(Oc3ccc4c(c3)OCO4)n2Cc2ccc(Cl)cc2)n(C)c1=O returns the recorded outcome of this test.
### Response inactive

### Prompt GET /call?item= COc1ccc(S(=O)(=O)Nc2ccc(N)c(-c3ccccc3O)c2)cc1OC returns the recorded outcome of this test.
### Response inactive

### Prompt GET /call?item= CCCC(C)C(=O)Nc1cc(OC)ccc1OC (stereo not drawn) returns the recorded outcome of this test.
### Response inactive

### Prompt GET /call?item= CC(=O)Oc1cccc2c1C(=O)c1c(OC(C)=O)cc(C(=O)O)cc1C2=O returns the recorded outcome of this test.
### Response active

### Prompt GET /call?item= Cc1ccc(S(=O)(=O)Nc2ccc(O)c(-c3ccccc3O)c2)cc1 returns the recorded outcome of this test.
### Response inactive

Ref: PubChem BioAssay AID712
